# assay.explanation: LD50 in mice, i.v., observation time of 14 days
# run.conditions: mouse, in vivo, iv, observation time of 14 days
# Text: Additionally, it should be noted that at all dosage levels the test compounds were tolerated very well and produced no toxic side-effects.
measured.quantity: LD50 at 336 h
Answer with the value and then the unit.

Noted for COc1ccc(CCN(C)CCCN2CCc3cc(OC)c(OC)cc3C2=O)cc1OC.Cl : its LD50 at 336 h reads 53 mg/kg
